target: Beta-2 adrenergic receptor (Rattus norvegicus); experiment: Agonistic activity for Beta-2 adrenergic receptor was assessed by it's inhibitory effect on spontaneous contractions in isolated rat uterus
readout-kind: pIC50
Field pIC50 (float): negative decimal logarithm of the concentration in molar.

Req: Entry C[C@H](Cc1ccc(OCC(=O)O)cc1)NC[C@H](O)c1cccc(Cl)c1 (relative stereo) : reported pIC50 = ?
Resp: 8.04

* * *

biological target: Beta-1 adrenergic receptor (Rattus norvegicus) (UniProt P18090)
Sequence (P18090 whole entry, looked up): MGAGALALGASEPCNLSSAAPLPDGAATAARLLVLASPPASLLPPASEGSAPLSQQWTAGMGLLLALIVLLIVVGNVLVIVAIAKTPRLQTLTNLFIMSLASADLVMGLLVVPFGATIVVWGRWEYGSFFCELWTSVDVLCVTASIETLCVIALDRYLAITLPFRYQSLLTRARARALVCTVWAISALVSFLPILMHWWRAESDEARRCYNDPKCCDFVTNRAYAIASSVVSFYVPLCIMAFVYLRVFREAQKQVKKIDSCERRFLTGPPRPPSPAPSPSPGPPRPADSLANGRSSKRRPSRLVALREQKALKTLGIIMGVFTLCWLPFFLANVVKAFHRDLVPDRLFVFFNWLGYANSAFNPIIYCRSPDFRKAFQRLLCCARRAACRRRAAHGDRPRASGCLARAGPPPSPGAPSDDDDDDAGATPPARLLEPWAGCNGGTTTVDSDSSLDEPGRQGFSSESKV
EC20 by entry:
A number alone suffices; assume µM.

INSERT INTO measurements (molecule, value_observed) VALUES
  ('C[C@@H](NCCc1ccc(OCC(=O)O)c(Cl)c1)[C@H](O)c1ccc(O)cc1', 21),
  ('C[C@H](NCCc1ccc(OCC(=O)O)c(Cl)c1)[C@@H](O)c1ccc(O)cc1', 55),
  ('C[C@@H](NCCc1ccc(OCC(=O)O)c(Cl)c1)[C@@H](O)c1ccc(O)cc1', 14);

Now consider a different molecule.
Req: Dear colleague, I am looking for the recorded EC20 of the following molecule: CCOC(=O)COc1ccc(CCNC(C)C(O)c2ccc(O)cc2)cc1Cl (stereo not given)
Resp: 1.6

These measurements were taken from ChEMBL document CHEMBL1145008.
